experimentalProtocol: chemical genetic growth profiling, strain panel (AID 1159580);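 note: tested at 20 µM; growth read once vehicle control cultures reached saturation at 30 °C; 1 = growth at the plate median or of vehicle wells; lower values mean less growth of the strain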
measurementSetup: S. cerevisiae deletion strains, growth OD, locus YER015W, strain faa2
The whole screen tested about 5,500 compounds, of which about 2,000 (36%) were called active. Inconclusive results (about 18%) are left out. Cut-off read from the data, not from the text of the source: active = normalized growth mostly below about 0.91 (no sharp cut-off); inconclusive = no clear call, values can overlap the other calls; inactive = mostly above about 0.92. This is one part of the list.
Possible outcomes: y = active, n = inactive

>  <molecule>
COc1cc(C(=O)NCc2ccc(OCCN(C)C)cc2)cc(OC)c1OC

>  <class>
n

$$$$
>  <molecule>
CCN(CC)CCOc1ccc2c(c1)C(=O)c1cc(OCCN(CC)CC)ccc1-2

>  <class>
n

$$$$
>  <molecule>
Nc1ncnc2c1ncn2[C@@H]1O[C@H](CO)[C@@H](O)[C@H]1O

>  <class>
n

$$$$
>  <molecule>
CN1C(CC(=O)c2ccccc2)CCCC1CC(O)c1ccccc1 (centres undefined)

>  <class>
n

$$$$
>  <molecule>
CC(=O)NCCCS(=O)(=O)O

>  <class>
n

$$$$
>  <molecule>
O=C1C=CC2=C3c4cc(O)c(O)cc4C[C@@]3(O)COC2=C1

>  <class>
n

$$$$
>  <molecule>
CCCCC1=NC2(CCCC2)C(=O)N1Cc1ccc(-c2ccccc2-c2nn[nH]n2)cc1

>  <class>
n

$$$$
>  <molecule>
CCCC(C)C1(CC)C(=O)NC(=O)NC1=O (centres undefined)

>  <class>
n

$$$$
>  <molecule>
Nc1ccc(S(=O)(=O)Nc2ccc(Cl)nn2)cc1

>  <class>
n

$$$$
>  <molecule>
CNC[C@@H](O)c1ccc(O)c(O)c1

>  <class>
n

$$$$
>  <molecule>
CC(C)NCC(O)c1ccc(O)c(O)c1 (centres undefined)

>  <class>
n

$$$$
>  <molecule>
Nc1ncnc2c1ncn2C1C[C@H](O)[C@@H](CO)O1 (some centres undefined)

>  <class>
n

$$$$
>  <molecule>
CC(C)=CCC/C(C)=C/CC/C(C)=C/CC/C(C)=C/CC/C(C)=C/CC/C(C)=C/CC/C(C)=C/CC/C(C)=C/CC/C(C)=C/CO

>  <class>
n

$$$$
>  <molecule>
O=C1O[C@H](C(O)CO)C(O)=C1O (some centres undefined)

>  <class>
n

$$$$
>  <molecule>
CC/C(=C(\c1ccccc1)c1ccc(OCCN(C)C)cc1)c1ccccc1

>  <class>
y

$$$$
>  <molecule>
C=CC(C)(O)CC/C=C(\C)CCC=C(C)C (centres undefined)

>  <class>
n

$$$$
>  <molecule>
CN(C)CCOc1ccc(/C(=C(/CCCl)c2ccccc2)c2ccccc2)cc1

>  <class>
y

$$$$
>  <molecule>
CCN(CC)CCNC(=O)c1cc(S(C)(=O)=O)ccc1OC

>  <class>
n

$$$$
>  <molecule>
O[N+]1=CC=CCC1=S.On1ccccc1=S.[Zn]

>  <class>
y

$$$$
>  <molecule>
COc1ccc(C(Cl)=C(c2ccc(OC)cc2)c2ccc(OC)cc2)cc1

>  <class>
n

$$$$
>  <molecule>
CCCC(C)C1(CC)C(=O)N=C(S)NC1=O (centres undefined)

>  <class>
n

$$$$
>  <molecule>
Nc1ncnc2c1ncn2C1O[C@H](COP(=O)(O)O)[C@@H](O)[C@H]1O (some centres undefined)

>  <class>
n

$$$$
>  <molecule>
C/C=C/c1ccc2c(c1)OCO2

>  <class>
n

$$$$
>  <molecule>
CC(C)(C)NC[C@@H](O)COc1nsnc1N1CCOCC1

>  <class>
n

$$$$
>  <molecule>
C[C@H](N)[C@H](O)c1ccc(O)c(O)c1

>  <class>
n

$$$$
>  <molecule>
NC[C@H](O)c1ccc(O)c(O)c1

>  <class>
n

$$$$
>  <molecule>
CC(=O)O[C@@H]1CC2C(C)(C)C=CC(=O)[C@]2(C)C2CC[C@@]3(C)[C@H](c4ccoc4)OC(=O)C4OC43[C@@]21C (some centres undefined)

>  <class>
n

$$$$
>  <molecule>
CC(C)=CCC[C@](C)(O)C1CC=C(C)CC1 (some centres undefined)

>  <class>
n

$$$$
>  <molecule>
NCCCC[C@H](N[C@@H](CCc1ccccc1)C(=O)O)C(=O)N1CCC[C@H]1C(=O)O

>  <class>
n

$$$$
>  <molecule>
O=C(OC1Cc2c(O)cc(O)cc2OC1c1cc(O)c(O)c(O)c1-c1c(C2Oc3cc(O)cc(O)c3CC2OC(=O)c2cc(O)c(O)c(O)c2)cc(O)c(O)c1O)c1cc(O)c(O)c(O)c1 (centres undefined)

>  <class>
y

$$$$
>  <molecule>
CC(=O)NCCCCCC(=O)O

>  <class>
n

$$$$
>  <molecule>
CN/C(=C\[N+](=O)[O-])NCCSCc1ccc(CN(C)C)o1

>  <class>
n

$$$$
>  <molecule>
CC(=O)O[C@@H]1C[C@@]2(C)[C@H](c3ccoc3)C[C@H]3O[C@]32[C@]2(C)C(=O)C(O)=C3C(C)(C)C(=O)C=C[C@]3(C)C12 (some centres undefined)

>  <class>
n

$$$$
>  <molecule>
C=C(NC(=O)C(=C)NC(=O)c1csc(C2=NC3c4csc(n4)C4NC(=O)c5csc(n5)C(C(C)(O)C(C)O)NC(=O)C5CSC(=N5)C(=CC)NC(=O)C(C(C)O)NC(=O)c5csc(n5)C3(CC2)NC(=O)C(C)NC(=O)C(=C)NC(=O)C(C)NC(=O)C(C(C)CC)NC2C=Cc3c(C(C)O)cc(nc3C2O)C(=O)OC4C)n1)C(N)=O (centres undefined)

>  <class>
n

$$$$

---

experimentalProtocol: chemical genetic growth profiling, strain panel (AID 1159580);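 note: tested at 20 µM; growth read once vehicle control cultures reached saturation at 30 °C; 1 = growth at the plate median or of vehicle wells; lower values mean less growth of the strain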
measurementSetup: S. cerevisiae deletion strains, growth OD, locus YLR058C, strain SHM2, stronger effect = lower value
About 2,000 (36%) of roughly 5,500 compounds were called active. Inconclusive results (about 18%) are left out. Some of the results follow.
Quick reference for normalized growth among some molecules

>  <molecule>
Cc1ccsc1/C=C/C1=NCCCN1C

>  <normalized growth>
1.01

$$$$
>  <molecule>
CC1(C)C(O)CC(O)C2(C)C1CC(=O)C1(C)C2CCC2(C)C(C(=O)O)OC(=O)C3OC321 (centres undefined)

>  <normalized growth>
1.01

$$$$
>  <molecule>
COC(=O)C[C@H]1C(C)(C)C(=O)[C@@H]2CC3=C4CC(=O)O[C@@H](c5ccoc5)[C@]4(C)CCC3[C@@]1(C)C2=O (some centres undefined)

>  <normalized growth>
1

$$$$
>  <molecule>
CC(C)=CCC[C@](C)(O)C1CC=C(C)CC1 (some centres undefined)

>  <normalized growth>
1.03

$$$$

---

experimentalProtocol: chemical genetic growth profiling, strain panel (AID 1159580);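 note: tested at 20 µM; growth read once vehicle control cultures reached saturation at 30 °C; 1 = growth at the plate median or of vehicle wells; lower values mean less growth of the strain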
measurementSetup: S. cerevisiae deletion strains, growth OD, locus YGL227W, strain vid30, stronger effect = lower value
The campaign covered roughly 5,500 compounds. About 2,000 (36%) were called active. Roughly 18% stayed inconclusive and do not appear here. Some of the results follow.
parameter: normalized growth

>  <molecule>
CC(C)NCC(O)c1ccc(O)c(O)c1 (stereo not drawn)

>  <parameter>
normalized growth

>  <assayResult>
0.99 (inactive)

$$$$
>  <molecule>
O=C1C=CC2=C3c4cc(O)c(O)cc4C[C@@]3(O)COC2=C1

>  <parameter>
normalized growth

>  <assayResult>
0.989 (inactive)

$$$$
>  <molecule>
CNC[C@@H](O)c1ccc(O)c(O)c1

>  <parameter>
normalized growth

>  <assayResult>
1 (inactive)

$$$$
>  <molecule>
C=CC(C)(O)CC/C=C(\C)CCC=C(C)C (stereo not drawn)

>  <parameter>
normalized growth

>  <assayResult>
0.979 (inactive)

$$$$
>  <molecule>
O=[N+]([O-])c1cc([As](=O)(O)O)ccc1O

>  <parameter>
normalized growth

>  <assayResult>
0.964 (inactive)

$$$$
>  <molecule>
C=C(CC)C(=O)c1ccc(OCC(=O)O)c(Cl)c1Cl

>  <parameter>
normalized growth

>  <assayResult>
1.01 (inactive)

$$$$
>  <molecule>
O=C(O)/C=C/C=C/c1ccccc1

>  <parameter>
normalized growth

>  <assayResult>
0.761 (active)

$$$$
>  <molecule>
CC(C)=CCC[C@](C)(O)C1CC=C(C)CC1 (stereo partly drawn)

>  <parameter>
normalized growth

>  <assayResult>
0.981 (inactive)

$$$$
>  <molecule>
Nc1ccc(S(=O)(=O)Nc2ccc(Cl)nn2)cc1

>  <parameter>
normalized growth

>  <assayResult>
0.979 (inactive)

$$$$
>  <molecule>
CCCCC1=NC2(CCCC2)C(=O)N1Cc1ccc(-c2ccccc2-c2nn[nH]n2)cc1

>  <parameter>
normalized growth

>  <assayResult>
1.01 (inactive)

$$$$
>  <molecule>
Oc1c(I)cc(Cl)c2cccnc12

>  <parameter>
normalized growth

>  <assayResult>
0.0887 (active)

$$$$
>  <molecule>
Oc1c(Br)cc(Br)c2cccnc12

>  <parameter>
normalized growth

>  <assayResult>
0.0683 (active)

$$$$
>  <molecule>
NCC(O)c1ccc(O)cc1 (stereo not drawn)

>  <parameter>
normalized growth

>  <assayResult>
0.995 (inactive)

$$$$
>  <molecule>
CCCCC(CC)CN1CN(CC(CC)CCCC)CC(C)(N)C1 (stereo not drawn)

>  <parameter>
normalized growth

>  <assayResult>
0.0601 (active)

$$$$
>  <molecule>
CN(C)CCOc1ccc(/C(=C(/CCCl)c2ccccc2)c2ccccc2)cc1

>  <parameter>
normalized growth

>  <assayResult>
0.0851 (active)

$$$$
>  <molecule>
CC(=O)/C(=C\c1ccccc1)CC(=O)O

>  <parameter>
normalized growth

>  <assayResult>
0.991 (inactive)

$$$$
>  <molecule>
C[C@H](N)[C@H](O)c1ccc(O)c(O)c1

>  <parameter>
normalized growth

>  <assayResult>
0.992 (inactive)

$$$$
>  <molecule>
Oc1ccc(Cl)c2cccnc12

>  <parameter>
normalized growth

>  <assayResult>
0.128 (active)

$$$$
>  <molecule>
CCN(CC)CCOc1ccc(/C(=C(\Cl)c2ccccc2)c2ccccc2)cc1

>  <parameter>
normalized growth

>  <assayResult>
0.144 (active)

$$$$
>  <molecule>
O=C1C=CC2=C3c4cc(O)c(O)cc4CC3(O)COC2=C1O (stereo not drawn)

>  <parameter>
normalized growth

>  <assayResult>
1.06 (inactive)

$$$$
>  <molecule>
Oc1c(I)cc(I)c2cccnc12

>  <parameter>
normalized growth

>  <assayResult>
0.0911 (active)

$$$$
>  <molecule>
Oc1c(Cl)cc(Cl)c2cccnc12

>  <parameter>
normalized growth

>  <assayResult>
0.0665 (active)

$$$$
>  <molecule>
CC(C)=CCC/C(C)=C/CC/C(C)=C/CC/C(C)=C/CC/C(C)=C/CC/C(C)=C/CC/C(C)=C/CC/C(C)=C/CC/C(C)=C/CO

>  <parameter>
normalized growth

>  <assayResult>
0.983 (inactive)

$$$$
